System: IGROV-1
Assay: NCI tumour cell line growth inhibition, 48 h
The source made the active and inactive calls. No stated cut-off is given here; in the data, active = GI50 up to about 1.1 µM and inactive = higher.
Provide the reported GI50 of each item.

Per the records, this compound ( "C(=C\c1ccccc1)/Cn1nc(-c2ccccc2)nc1-c1cnccn1" ) has GI50 equal to > 100 µM (inactive)

Per the records, this compound ( "O=[N+]([O-])c1c(F)c(F)c2c(c1F)N(CCCCCl)c1ccccc1S2" ) has GI50 equal to 2.27 µM (inactive)

Per the records, this compound ( CC(=O)NC1C(OCc2ccccc2)OC(CO)C(O)C1OC(C)C(=O)NC(C(=O)NC(CCC(=O)NCCCCNc1c2ccccc2nc2cccc([N+](=O)[O-])c12)C(N)=O)C(C)C (stereo unspecified) ) has GI50 equal to 2.05 µM (inactive)

Per the records, this compound ( COc1ccc(/C(=N/Nc2ccccc2)C(c2ccc(OC)cc2)C2OC(=O)c3ccccc32)cc1 (stereo unspecified) ) has GI50 equal to 83.9 µM (inactive)

Per the records, this compound ( CCOC(=O)C12CCSC1C1(C#N)C(C#N)=CC2(N=P(c2ccccc2)(c2ccccc2)c2ccccc2)n2c(=O)n(-c3ccccc3)c(=O)n21 (stereo unspecified) ) has GI50 equal to 59.8 µM (inactive)

Per the records, this compound ( "Cc1nc2nnc(C)n2c2c1C(=O)Nc1ccccc1N2" ) has GI50 equal to > 100 µM (inactive)
